So I've got a bunch of binders here, and I need their kon values.
Target: T1, Mouse His-GDF15: HIS-tagged mouse GDF15 (mouse, UniProt Q9Z0J7 189-303)
T1 construct: not shown: His tag
T1 sequence (looked up): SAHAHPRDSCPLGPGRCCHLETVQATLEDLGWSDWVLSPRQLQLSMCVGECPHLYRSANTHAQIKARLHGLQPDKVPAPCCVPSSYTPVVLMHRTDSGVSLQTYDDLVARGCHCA
Test: Biacore SPR, IgG captured via anti-human Fc, GDF15 in flow
Give bare numbers, in M⁻¹ s⁻¹.

Worked cases, answers included:
ABGDF15-G (antibody, human IgG1, kappa, V domains shown, captured through anti-human Fc in the Biacore assay) VH: QVQLVQSGAEVKKPGSSVKVSCKASGGTFSSHYINWVRQAPGQGLEWMGGIIPAFGGANYAQKFQGRVTITADESTSTAYMELSSLRSEDTAVYYCARFGSVYVSRYSSYYHMDVWGQGTLVTVSS VL: DIQMTQSPSSLSASVGDRVTITCRASQTIYRSLAWYQQKPGKAPKLLIYGASILQSGVPSRFSGSGSGTDFTLTISSLQPEDFATYYCLQRYTSPFTFGQGTKVEIKR: 2.23e+06
ABGDF15-E (antibody, human IgG1, lambda, V domains shown, captured through anti-human Fc in the Biacore assay) VH: EVQLVQSGAEVKKPGESLKISCKGSGYSFTSYWIGWVRQMPGKGLEWMGVIDPGGSYTIYSPSFQGQVTISADKSISTAYLQWSSLKASDTAMYYCARYGRYGTYFDYWGQGTLVTVSS VL: QSVLTQPPSVSGAPGQRVTISCSGSSSNIGVLYVNWYQQLPGTAPKLLIYSNDNRPSGVPDRFSGSKSGTSASLAITGLQAEDEADYYCQSWDSSSNYVFGGGTKLTVLG: 6.78e+06

Now for the binder whose kon we want.
Reported kon, binder ABGDF15-A (antibody, human IgG1, kappa, V domains shown, captured through anti-human Fc in the Biacore assay) VH: EVQLVQSGAEVKKPGESLKISCKGSGYSFTDYWISWVRQMPGKGLEWMGIIDPSGSYTIYSPSFQGQVTISADKSISTAYLQWSSLKASDTAMYYCARVSYYGGYFDIWGQGTLVTVSS VL: DIQMTQSPSSLSASVGDRVTITCRASQSISNNLNWYQQKPGKAPKLLIYAASNLQSGVPSRFSGSGSGTDFTLTISSLQPEDFATYYCFQLDHSPFTFGQGTKVEIKR : ____
1.08e+07
